# Test system: Plasmodium falciparum
# measurement_notes: Screen against P. falciparum Asexual Blood Stage (ABS), at 5uM
# Type: functional, Dd2
# condition: tested at 5 uM
The whole screen tested about 65,000 compounds, of which about 2,100 (3.2%) showed an effect of 50% or more. The median lay at about -52%. The sample as a whole holds a higher share of strong results than the screen did.
measurement_label: INHIBITION

COc1cccc(CN2CCCCC2c2n[nH]cc2-c2cc(C)no2)c1 (stereo unspecified) = 35.3%
N#Cc1cccc(CN2C(=O)C3(CCNCC3)Nc3ccccc32)c1 = 67.9%
Cc1ccc(C2CCCN2CC(=O)N(CCC#N)c2ccccc2)cc1 (stereo unspecified) = 62.4%
O[C@H]1CC[C@@H](Cc2cc(-c3ccccn3)on2)O[C@@H]1CNCC1CC1 = -70.3%
Cc1ccc(C(=O)NCCCNS(C)(=O)=O)cc1-n1cccc1 = -137%
NC(=O)c1ccc(CN2C(=O)C3(CCNCC3)Nc3ccccc32)cc1 = -3.53%
Cc1ccc(C)n1C(C)C(=O)N1CCCN(Cc2cscn2)CC1 (stereo unspecified) = -16.5%
O=C(c1ccco1)N1CCCC2(CCN(c3nncs3)C2)C1 (stereo unspecified) = -157%

For this compound ( Cc1nc(-c2cc(F)c3c(c2)CC(CN)O3)c[nH]1 (stereo unspecified) ), measured INHIBITION is 53.7%

GET /value?item= CN(Cc1cccnc1)C1COC2(CCN(Cc3nccs3)CC2)C1 (stereo unspecified) &field=INHIBITION returns -52.5%
